- Test system: T1, human Trop-2-His protein (human, UniProt P09758 27-274)
- T1 construct: extracellular domain; Assay paragraphs say only 'Trop-2-His'; also called hTrop-2; Kactus Cat #TRP-HM121; not shown: His tag
- T1 sequence (looked up): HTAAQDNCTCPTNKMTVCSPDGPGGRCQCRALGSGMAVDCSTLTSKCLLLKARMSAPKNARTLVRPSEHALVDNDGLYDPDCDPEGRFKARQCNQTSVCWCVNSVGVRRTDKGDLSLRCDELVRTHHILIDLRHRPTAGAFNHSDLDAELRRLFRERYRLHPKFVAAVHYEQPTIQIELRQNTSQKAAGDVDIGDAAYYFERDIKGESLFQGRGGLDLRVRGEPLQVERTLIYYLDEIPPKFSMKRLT
- Assay procedure: BLI (Gator Prime), LEM supernatant Ab on HFC probe
Each record here notes measured kon.
Give just the number in M⁻¹ s⁻¹; leave the unit off.

Binder | Value units | kon
9A5 (antibody, V domains shown, Rabbit-derived clone; LEM construct: VH + rabbit IgG CH1 + human IgG1 CH2-CH3) VH: QEQLKESGGGLVQPGGSLTLSCKASGFDFNNYGVSWVRQAPGKGLEWIAYIYPTYHNTYYATWVNGRFTISSHNAQNTLYLQLNTLTAADTATYFCARDAGGTDYNFNLWGPGTLVTVSS VL: DVVMTQTPASVEAAVGGTVTINCQASQSIESYLAWYQQKPGQPPKLLIYEASKLASGVSSRFSGGGYGTEFTLTISGVECADAATYYCQQALTIGNVDNPFGGGSEVVVK | M⁻¹ s⁻¹ | 529000
66A1 (antibody, V domains shown, Rabbit-derived clone; LEM construct: VH + rabbit IgG CH1 + human IgG1 CH2-CH3) VH: QEQLKESGGGLVQPGGSLKLSCKASGFDFNNYGVSWVRQAPGKGLEWIAYIYPAFHNTYYASWVNGRFTISSHNAQNTLYLQLNSLTAADTATYFCARDAGGTDYAYNLWGPGTLVTVSS VL: DVVMTQTPASVEAAVGGTVSINCQASEDIESYLAWYQQKPGQPPKLLIYKASTLASGVSSRFKGSGSGKQFTLTISGVECADAATYYCQQVLTIGNVDNPFGGGSEVVVK | M⁻¹ s⁻¹ | 656000

Problem: kon lookup needed for 2H5 (antibody, V domains shown, Rabbit-derived clone; LEM construct: VH + rabbit IgG CH1 + human IgG1 CH2-CH3) VH: QSLEESGGDLVQPGASLTLTCKASGFDLNNYSILWVRQAPGKGLEWIGCIYFSGGSTYYANWAKGRFAISKTSSTTVTLQMTSLTAADTATYFCARDDGTTSYYLNLWGPGTLVTVSS VL: YDMTQTPASVSEPVGGTVTIKCQASEDIYNLLAWYQQKPGQPPKLLIYAASDLESGVPSRFKGSGSGTEYTLTISDLECADAATYYCQQAYTVGNIDNAFGGGTEVVVK , thanks.
Solution: 331000
